Experiment: Volume of distribution in Wistar rat at 10 mg/kg, iv administered as single bolus dose
Type: ADME, organism-based
Set-up: dose 10 mg/kg, route intravenous
Details: in vivo
Attribute measured: Vd (L)
Answers are plain numbers, in L.

>>> val("O=C(NN1C(=O)CCSC1c1ccc(OCc2ccccc2)cc1)c1ccncc1 (configuration not stated)")
1.99

Continue with the compound presented below.
Q: Find the recorded Vd belonging to NNC(=O)c1ccncc1 and report it.
Result: 0.026

###

Experiment: Elimination rate constant in Wistar rat at 10 mg/kg, iv administered as single bolus dose
Assay type: ADME, organism-based
Set-up: dose 10 mg/kg, route intravenous
Settings: in vivo
Attribute measured: k el (s⁻¹)
Answers are plain numbers, in s⁻¹.

>>> val("O=C(NN1C(=O)CCSC1c1ccc(OCc2ccccc2)cc1)c1ccncc1 (configuration not stated)")
0.000172

API: the following record is the query input.
Q: Consider the molecule shown here: NNC(=O)c1ccncc1 What is its recorded k el?
Result: 6.67e-05

###

Please go through the items and note down their MIC.
Test system: Mycobacterium tuberculosis
Test: Antimycobacterial activity against Mycobacterium tuberculosis H37Rv by agar dilution method
Type: functional
One number for each entry, in µM.

Solved cases below.
>>> val("O=C(NN1C(=O)CCSC1c1ccc([N+](=O)[O-])cc1)c1ccncc1 (centres undefined)")
1.11
>>> val("COc1ccc(C2SCCC(=O)N2NC(=O)c2ccncc2)cc1 (centres undefined)")
4.54
>>> val("Cc1cccc(C2SCCC(=O)N2NC(=O)c2ccncc2)c1 (centres undefined)")
9.56
>>> val("O=C(NN1C(=O)CCSC1c1cccc(C(F)(F)F)c1)c1ccncc1 (centres undefined)")
0.52
>>> val("CC(C)c1ccc(C2SCCC(=O)N2NC(=O)c2ccncc2)cc1 (centres undefined)")
2.14
>>> val("O=C(NN1C(=O)CCSC1c1cccc(F)c1)c1ccncc1 (centres undefined)")
0.6
>>> val("O=C(NN1C(=O)CCSC1c1cccc(OCc2ccccc2)c1)c1ccncc1 (centres undefined)")
0.24
>>> val("O=C(NN=C1CCCCC1)c1ccncc1")
0.0004
>>> val("COc1cc(C2SCCC(=O)N2NC(=O)c2ccncc2)ccc1O (centres undefined)")
8.7
>>> val("O=C(NN1C(=O)CCSC1c1ccc(F)cc1)c1ccncc1 (centres undefined)")
0.3

Record MIC per entry; entries follow.
1. O=C(NN1C(=O)CCSC1c1ccccc1[N+](=O)[O-])c1ccncc1 (centres undefined)
2. O=C(NN1C(=O)CCSC1Cc1ccco1)c1ccncc1 (centres undefined)
3. COc1cccc(C2SCCC(=O)N2NC(=O)c2ccncc2)c1 (centres undefined)
4. NNC(=O)c1ccncc1 [ISONIAZID]
5. O=C(NN1C(=O)CCSC1c1ccccc1Br)c1ccncc1 (centres undefined)
6. O=C(NN1C(=O)CCSC1c1ccc(C(F)(F)F)cc1)c1ccncc1 (centres undefined)

Result:
1. 2.12
2. 41.2
3. 9.08
4. 0.36
5. 0.25
6. 0.13

# batch: return MIC for each of the 2 compounds below
1. O=C(c1ccncc1)N1N=CCC1(O)C(F)(F)F (centres undefined)
2. O=C(NN1C(=O)CCSC1c1ccc(Cl)cc1)c1ccncc1 (centres undefined)

Result:
[0.77, 0.575]

Count: 3. Required value per item: MIC.
1. O=C(NN1C(=O)CCSC1c1ccccc1Cl)c1ccncc1 (centres undefined)
2. O=C(NN1C(=O)CCSC1c1ccccc1OCc1ccccc1)c1ccncc1 (centres undefined)
3. COc1ccccc1C1SCCC(=O)N1NC(=O)c1ccncc1 (centres undefined)

Result:
1: 1.15; 2: 0.24; 3: 9.08

Ref: ChEMBL document CHEMBL2021787
